// data source = PubChem BioAssay (EPA / NIEHS)

Assay: ATG_TGFb_CIS: Attagene CIS-FACTORIAL HepG2 Assay for human Transforming Growth Factor (TGF) (AID 2282967)
Conditions: HepG2 Attagene CIS TGFb reporter, mRNA transcription; actives raise or lower the signal
Activity calls are given as the source filed them. How the source made its calls: active means hit-call score of the fitted dose curve at least 0.9, where 1 is the maximum; inactive means score below 0.9.
Pick from active, inactive when you respond.

Check out these entries, answers already filled in.
Data request: What call does the record list for CC(C)c1cccc(C(C)C)c1 ?
Data returned: inactive

Data request: Fill in: this test's call for C=CCc1ccc(OC)c(OC)c1 is ___
Data returned: inactive

Data request: Short answer needed: outcome of this test for O=C(O)c1[nH]n(-c2ccc(S(=O)(=O)O)cc2)c(=O)c1N=Nc1ccc(S(=O)(=O)O)cc1 ?
Data returned: inactive

Data request: Tell me the recorded outcome of this test for COC(=O)[C@H]1[C@H]2C[C@@H]3c4[nH]c5cc(OC)ccc5c4CCN3C[C@H]2C[C@@H](OC(=O)c2cc(OC)c(OC)c(OC)c2)[C@@H]1OC .
Data returned: inactive

Data request: I'd appreciate the recorded outcome for CC1(C)C(=O)NC(=O)N1CO from this test.
Data returned: inactive

More entries:
Data request: Hi, do you know how CC(C)COC(=O)CCCCC(=O)OCC(C)C came out in this test?
Data returned: inactive

Data request: Can you look up the reported call for c1ccc2occc2c1 for me?
Data returned: inactive

Data request: Assay outcome for CC(=O)O[C@]1(C(C)=O)CC[C@H]2[C@@H]3C=C(Cl)C4=CC(=O)[C@@H]5C[C@@H]5[C@]4(C)[C@H]3CC[C@@]21C : what was it?
Data returned: inactive

Data request: Short answer needed: outcome of this test for CN(C)CCCN(C)CCCN(C)C ?
Data returned: inactive

Data request: In this assay, the call recorded for Oc1ccc(O)cc1 was what?
Data returned: inactive

---

Read-out: Peroxisomal acyl-coenzyme A oxidase 1 (ACOX1) gene, ACOX1 (gene 51)
Assay: LTEA_HepaRG_ACOX1: Life Technologies and Expression Analysis (LTEA) Assay for Peroxisomal acyl-coenzyme A oxidase 1 (ACOX1) gene using HepaRG (AID 2283467)
Settings: mRNA level, 48 h; actives raise or lower the signal
The source made the active and inactive calls. The calls were made as follows: active = hit-call score of the fitted dose curve at least 0.9, where 1 is the maximum; inactive = score below 0.9.
// allowed return values: Y for active, N for inactive

Study these solved cases before continuing.
Data request: What did the test return for CC(C)OC(=O)C(C)(C)Oc1ccc(C(=O)c2ccc(Cl)cc2)cc1 ?
Data returned: N

Data request: State the result this test recorded for CC(C)COC(=O)CCCCC(=O)OCC(C)C .
Data returned: N

Data request: In this assay, the call recorded for CN(C)CCCN(C)CCCN(C)C was what?
Data returned: N

Data request: Tell me the recorded outcome of this test for CC(=O)O .
Data returned: N

Others:
Data request: Status in this test for CS(=O)(=O)c1ccc([C@@H](C[C@H]2CCC(=O)C2)C(=O)Nc2cnccn2)cc1Cl ?
Data returned: N

Data request: Dear colleague, could you share the recorded outcome for Cc1cc(Cc2ccc(N)c(C)c2)ccc1N when you have a moment?
Data returned: N

Data request: Assay result, entry O=C1c2c(O)cccc2Cc2cccc(O)c21 — outcome?
Data returned: N

---

Read-out: C-C motif chemokine 2 (Homo sapiens)
Experiment: BSK_KF3CT_MCP1: BioMAP Diversity Plus: KF3CT Assay for Monocyte Chemoattractant Protein 1 (MCP1/CCL2) Biomarker Activity (AID 2283073)
Details: primary human keratinocytes with fibroblasts; actives raise or lower the signal
The source made the active and inactive calls. Rule for the calls: active = hit-call score of the fitted dose curve at least 0.9, where 1 is the maximum; inactive = score below 0.9.
Respond only with the outcome that fits, drawn from active, inactive

Solved cases below.
Data request: Which outcome did this test record for the compound Oc1ccc(O)cc1 ?
Data returned: inactive

Data request: Test call for this compound, please: NC=O
Data returned: inactive

Data request: Call for entry CC(=O)O :
Data returned: inactive

Data request: For this compound, state the assay outcome: O=C1c2c(O)cccc2Cc2cccc(O)c21
Data returned: active

Data request: Fill in: this test's call for CC(=O)CC(c1ccccc1)c1c(O)c2ccccc2oc1=O (stereo not drawn) is ___
Data returned: inactive

Data request: Recorded test outcome, item O=Cc1ccccc1C=O
Data returned: inactive

Data request: Status in this test for CCCCC(CC)CO (stereo not drawn) ?
Data returned: inactive

Data request: I'd appreciate the recorded outcome for CC1(C)C(=O)NC(=O)N1CO from this test.
Data returned: inactive

Data request: Hi team, can someone confirm the assay call for COC(=O)[C@H]1[C@H]2C[C@@H]3c4[nH]c5cc(OC)ccc5c4CCN3C[C@H]2C[C@@H](OC(=O)c2cc(OC)c(OC)c(OC)c2)[C@@H]1OC ?
Data returned: inactive

Data request: Per the assay record, what outcome was assigned to CCCCC(CC)COP(=O)(OCC(CC)CCCC)OCC(CC)CCCC (stereo not drawn) ?
Data returned: inactive

***
Data request: Would you mind telling me which call this test gave NC(=Nc1ccccc1)Nc1ccccc1 ?
Data returned: inactive

Data request: Hi team, can someone confirm the assay call for CSc1ccc(Oc2ccc(S(N)(=O)=O)cc2CN(C)C)cc1C ?
Data returned: inactive

Data request: Name the outcome recorded for CC(C)(O)c1ccc(CNC(=O)c2cccnc2Oc2ccc(F)cc2)cc1 in the assay.
Data returned: inactive

---

Read-out: solute carrier (SLC22A1), SLC22A1 (gene 6580)
Assay: LTEA_HepaRG_SLC22A1: Life Technologies and Expression Analysis (LTEA) Assay for solute carrier (SLC22A1) using HepaRG (AID 2283524)
Conditions: mRNA level, 48 h; actives raise or lower the signal
Calls of active or inactive are those of the source. How the source made its calls: active means hit-call score of the fitted dose curve at least 0.9, where 1 is the maximum; inactive means score below 0.9.
Hi there, use one of these labels in your reply, thanks! active, inactive

Would you please look over these solved cases?
Data request: What call does the record list for CN(C)CCCN1c2ccccc2Sc2ccc(Cl)cc21 ?
Data returned: active

Data request: Assay result, entry C#CC(O)C(CC)CCCC (configuration not stated) — outcome?
Data returned: inactive

Data request: Please state the recorded outcome for this compound: C/C=C/C=C/C(=O)O
Data returned: inactive

Data request: Entry Cn1cnc2c1c(=O)[nH]c(=O)n2C : call = ?
Data returned: inactive

Data request: Which outcome did this test record for the compound Cc1cc(Cc2ccc(N)c(C)c2)ccc1N ?
Data returned: inactive

Further cases:
Data request: Outcome logged for c1ccc2occc2c1 in this assay:
Data returned: inactive

Data request: Hello, I am checking results. What call was entered for CC(=O)[C@@]1(O)CC[C@H]2[C@@H]3CCC4=CC(=O)CC[C@]4(C)[C@H]3CC[C@@]21C ?
Data returned: inactive

---

Biological target: Transcription factor Sp1 (Homo sapiens) (UniProt P08047)
Sequence (P08047 whole entry, looked up): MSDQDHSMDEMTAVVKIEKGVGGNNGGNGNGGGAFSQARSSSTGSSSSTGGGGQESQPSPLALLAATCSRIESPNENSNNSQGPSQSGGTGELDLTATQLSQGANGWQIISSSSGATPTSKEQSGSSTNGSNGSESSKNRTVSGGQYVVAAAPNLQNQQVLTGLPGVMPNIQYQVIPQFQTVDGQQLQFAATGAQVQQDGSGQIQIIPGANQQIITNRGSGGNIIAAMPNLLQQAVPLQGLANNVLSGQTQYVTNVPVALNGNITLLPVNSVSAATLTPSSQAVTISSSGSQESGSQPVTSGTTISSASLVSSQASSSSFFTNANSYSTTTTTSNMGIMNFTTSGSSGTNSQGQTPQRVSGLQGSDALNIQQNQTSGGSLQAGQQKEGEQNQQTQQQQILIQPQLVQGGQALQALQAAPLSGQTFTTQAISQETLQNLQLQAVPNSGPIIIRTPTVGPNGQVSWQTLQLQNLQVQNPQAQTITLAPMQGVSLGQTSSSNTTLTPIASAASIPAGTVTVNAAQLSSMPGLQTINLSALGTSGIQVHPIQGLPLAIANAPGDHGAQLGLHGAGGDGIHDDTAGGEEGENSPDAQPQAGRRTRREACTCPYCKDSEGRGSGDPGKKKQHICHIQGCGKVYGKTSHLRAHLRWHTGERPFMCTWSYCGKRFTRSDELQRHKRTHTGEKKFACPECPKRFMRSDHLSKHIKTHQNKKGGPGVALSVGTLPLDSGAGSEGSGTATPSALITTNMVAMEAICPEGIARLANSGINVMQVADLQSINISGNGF
Assay: ATG_Sp1_CIS: Attagene CIS-FACTORIAL HepG2 Assay for human Specificity Protein 1 (Sp1) (AID 2282961)
Settings: HepG2 Sp1 cis-reporter transcription, actives raise or lower the signal
Activity calls are given as the source filed them. The calls were made as follows: active = hit-call score of the fitted dose curve at least 0.9, where 1 is the maximum; inactive = score below 0.9.
Hi! Could you answer with just one of these? TRUE for active, FALSE for inactive

Before answering, review these 2 worked examples.
Data request: What call does the record list for CC(C)(O)c1ccc(CNC(=O)c2cccnc2Oc2ccc(F)cc2)cc1 ?
Data returned: FALSE

Data request: Could you kindly confirm the outcome this assay logged for Cc1ccc(-c2cc(C(F)(F)F)nn2-c2ccc(S(N)(=O)=O)cc2)cc1 ?
Data returned: FALSE

---
Data request: Dear all, I need the recorded test outcome for C=CCc1ccc(OC)c(OC)c1 , thank you.
Data returned: FALSE

Data request: Identify the outcome logged in this assay for the molecule shown: Cc1ccc(C(C)(C)C)c(O)c1
Data returned: TRUE

Data request: Hi, sorry to bother you, what did the test record for Oc1ccccc1O ?
Data returned: FALSE

Data request: Which result was noted for this molecule in the test: CC(C)NCC(O)c1ccc(O)c(O)c1 (stereo not given)
Data returned: FALSE

Data request: Hi, sorry to bother you, what did the test record for Oc1ccc(O)cc1 ?
Data returned: TRUE

Data request: # fetch the recorded call for NC(=Nc1ccccc1)Nc1ccccc1 here
Data returned: FALSE

Data request: GET /call?item= Nc1nc(=S)c2[nH]cnc2[nH]1 returns the recorded outcome of this test.
Data returned: FALSE

Data request: In this assay, the call recorded for CN(C)C(=O)NC1(c2ccccc2)CCN(CC[C@@]2(c3ccc(F)c(F)c3)CN(C(=O)c3ccccc3)CCO2)CC1 was what?
Data returned: FALSE

Data request: How did this test come out for Cc1cc(SC2=C(O)C[C@@](CCc3ccc(N)cc3)(C(C)C)OC2=O)c(C(C)(C)C)cc1CO ?
Data returned: TRUE

Data request: Call for entry N[C@@H](Cc1c[nH]c2ccccc12)C(=O)O :
Data returned: FALSE

Data request: Could you please tell me the result logged for O=Cc1ccccc1C=O in this assay?
Data returned: FALSE

Data request: Hi, sorry to bother you, what did the test record for CC(N)=O ?
Data returned: FALSE

Data request: # lookup: test call for C=CCCCCCCCCCCCC
Data returned: FALSE

---

Biological target: X-box-binding protein 1 (Homo sapiens)
Assay: ATG_Xbp1_CIS: Attagene CIS-FACTORIAL HepG2 Assay for human X-box Binding Protein 1 (XBP1) (AID 2282972)
Settings: HepG2 XBP1 cis-element reporter, Attagene multiplex; actives raise or lower the signal
Active and inactive are the calls of the source. The calls were made as follows: active = hit-call score of the fitted dose curve at least 0.9, where 1 is the maximum; inactive = score below 0.9.
readout-label: AC50

Some solved cases for reference:
Data request: May I ask what AC50 has been recorded for O=C(N[C@@H](c1ccccc1)[C@@H]1CCCCN1)c1cccc(C(F)(F)F)c1Cl ?
Data returned: 33 µM (active)

Data request: # query: AC50 of entry CC(C)COC(=O)CCCCC(=O)OCC(C)C
Data returned: inactive

Data request: Reported AC50 for O=C(O)c1[nH]n(-c2ccc(S(=O)(=O)O)cc2)c(=O)c1N=Nc1ccc(S(=O)(=O)O)cc1 : what is it?
Data returned: inactive

Data request: So what does the record say about AC50 for O=C1OC(c2ccc(O)cc2)(c2ccc(O)cc2)c2ccccc21 ?
Data returned: 30 µM (active)

More entries:
Data request: What AC50 value was documented for this compound, CC(=O)[C@@]1(O)CC[C@H]2[C@@H]3CCC4=CC(=O)CC[C@]4(C)[C@H]3CC[C@@]21C ?
Data returned: inactive
